test system: HOP-92 NSCLC; experiment: NCI tumour cell line growth inhibition, 48 h

>  <compound>
Cc1c(-c2ccc(N3CCc4cccc(C(=O)Nc5nc6ccccc6s5)c4C3)nc2C(=O)O)cnn1CC12CC3CC(CC(C3)C1)C2

>  <TGI>
< 0.01 µM

$$$$
>  <compound>
COC(=O)C1CCC(=S)N1C(C)=O (stereo not drawn)

>  <TGI>
> 100 µM

$$$$
>  <compound>
Cc1cc(NS(=O)(=O)c2ccc(NC(NC(=O)OC(C)C)(C(F)(F)F)C(F)(F)F)cc2)nc(C)n1

>  <TGI>
> 100 µM

$$$$
>  <compound>
CC(=O)OCc1cc2c(s1)C(=O)c1sccc1C2=O

>  <TGI>
1.68 µM

$$$$
>  <compound>
CCCSC1=N/C(=C\c2ccco2)C(=O)N1

>  <TGI>
> 100 µM

$$$$
>  <compound>
O=C(Nc1cccc(C(F)(F)F)c1)Nc1cc(S(=O)(=O)NC2CC2)ccc1-c1ccsc1

>  <TGI>
7.45 µM

$$$$
>  <compound>
Clc1cc2ncn(C3CCCO3)c2cc1Cl (stereo not drawn)

>  <TGI>
> 100 µM

$$$$
>  <compound>
Nc1nc(N)c2ncn(Cc3ccccc3)c2n1

>  <TGI>
> 100 µM

$$$$
>  <compound>
N/N=C(\N)SCc1ccc(N=C=S)cc1

>  <TGI>
> 100 µM

$$$$
>  <compound>
CCCCCCCCCCCCCCCC(=O)NCC(OCC)OCC

>  <TGI>
> 100 µM

$$$$
>  <compound>
CCOC(=O)C1(NC(=O)OC(C)(C)C)CCc2[nH]oc(=O)c2C1 (stereo not drawn)

>  <TGI>
> 100 µM

$$$$
>  <compound>
CCN(CC)CCCNc1nnc(C)c2[nH]c3ccccc3c12

>  <TGI>
55 µM

$$$$
>  <compound>
Cc1nc(-c2cccnc2)sc1C(=O)/C=C/c1ccc(Cl)cc1Cl

>  <TGI>
> 100 µM

$$$$
>  <compound>
N#Cc1c2c(c(Nc3ccc(Cl)cc3)n3c1nc1ccccc13)CCCC2

>  <TGI>
> 100 µM

$$$$
>  <compound>
Cn1c(=O)c2c(n(C)c1=O)n1c(=O)c3ccccc3nc1n2C

>  <TGI>
> 100 µM

$$$$
>  <compound>
COc1ccc(NC(=S)Nc2cccc(C)n2)cc1

>  <TGI>
> 100 µM

$$$$
>  <compound>
O=[N+]([O-])C1(CO)COC(CCc2ccccc2)OC1 (stereo not drawn)

>  <TGI>
> 100 µM

$$$$
>  <compound>
CCCCN1/C(=N/Nc2n[nH]c(=O)c3ccccc23)SCC1c1ccc(Cl)cc1 (stereo not drawn)

>  <TGI>
> 100 µM

$$$$
>  <compound>
COC(=O)c1ccccc1NCc1cc(O)ccc1O

>  <TGI>
35.3 µM

$$$$
>  <compound>
CC(=O)Oc1cc(OC(C)=O)c2c(c1C)CC[C@@H]1[C@@H]2CC[C@]2(C)[C@@H](OC(C)=O)CC[C@@H]12

>  <TGI>
35.2 µM

$$$$
>  <compound>
N#Cc1c(N)nc(N2CCOCC2)c(C#N)c1-c1ccc(Cl)cc1Cl

>  <TGI>
26.3 µM

$$$$
>  <compound>
CC(C)c1nc(Cl)c(Cl)c(Cl)n1

>  <TGI>
14.2 µM

$$$$
>  <compound>
O=C1OC(c2ccccc2)=N/C1=C\c1ccc(N(CCCl)CCCl)cc1

>  <TGI>
> 84.6 µM

$$$$
